SYSTEM: MS2 coat protein, dlFG mutant (Escherichia phage MS2, UniProt P03612, del68-81insG)
MEASUREMENT DESCRIPTION: 4 mM Mg2+; no ligand; RNA-MaP array; 100 mM Tris-HCl pH 7.5, 80 mM KCl, 4 mM MgCl2, 0.1 mg/mL BSA, 1 mM DTT, 0.01 mg/mL yeast tRNA, 0.01% Tween-20; protein 1.5 nM to 3 uM; 37 C (Table S3)
REPORTED CONDITIONS: chain copies: 2; label: tethered by stalled RNA polymerase
Provide the recorded Kd for the entries that follow.

Input Eterna 6002686 (Brourd's mod of Exclusion 4) (ssRNA) RNA: UAACAAAUUGUCAGGAUAUCAGUCCCGGCCCAGAUUGAGAAGGGACAUGAGGAUCACCCAUGUAUGAUUCUCAG , output reported Kd.
93.5 nM

Input Eterna 7765403 (Exclusion - FMN A) (ssRNA) RNA: AGUGAUGUAUGGCGGUUUGUCACUUAAAAUCAGGAUAUAUAAACAAAUAGAAGGGAUGGCGGAGUGAUGUUCCGCCGGCCGCCAU , output reported Kd.
> 3000 nM

Input Eterna 7710140 (Exclusion - Tryptophan A) (ssRNA) RNA: AGCUCGCAAUCCUCAGCGUCAAAGACGCGUCGAGGACCGGUACGGCCGCCACUCGACAAGAGGAUCACCCUUGUCUAAGCGAGCA , output reported Kd.
330 nM

Input Eterna 11587 (Sensor for hsa-mir-208a) (ssRNA) RNA: AUUUAACAAGCUUUUUGCUCGUCUUAUAAACAUGAGGAUCACCCAUGUAAUAGCGUGAGAGUAAAUAAUUUAAUAAU , output reported Kd.
11.3 nM

Input Eterna 6411926 (Small Loop Same State NG 1) (ssRNA) RNA: GUAUUUAGAUAAGGAUAUAAGUCUAUGACAUGAGGAUCACCCAUGUGUGUCUUAGAAGGUAUUUGGGUAAUAUUGUUACAGUAA , output reported Kd.
44.2 nM

Input Eterna 6420697 (Small Loop Exclusion NG 3) (ssRNA) RNA: AUCGUUGACUGGACGAGAAUAGGGCAGGAUAUACAUGAGGAUCACCCAUGUGAAGCACGAAAGAGGUAGAAGGGCCCACGUCAU , output reported Kd.
16.1 nM

Input Eterna 6108893 (Exclusion NG 1) (ssRNA) RNA: GCGUAAAAUGUAGGAUAUGACACAGGAAACUGGUCAGAAGGACAUGAGGAUCACCCAUGUAAAAUGUUCAAGAAUAACUCAUGC , output reported Kd.
123 nM

Input Eterna 7708077 (Same State - FMN A) (ssRNA) RNA: UUUUACGAGUGAUGUUCGUAAUGUAAUAGUUAGGAUAUCGUUUUUUCGAGAAGGAACUUCGAAGUGAUACGAAAGUAUCGCUUCG , output reported Kd.
> 3000 nM

Input Eterna 6456627 (Same State NG 3) (ssRNA) RNA: GCGCCUCAGAACAUGAGGAUCACCCAUGUGCUGCGGGCGCCGUAGGAUAUGAUGGUACGCUACCAUCAGAAGGAUGAUGGUACC , output reported Kd.
4.99 nM

Input Eterna 6430949 (Inverted Small Loop Exclusion NG 1) (ssRNA) RNA: GGGACCUACGAGAAGGGCUACAUGAGGAUCACCCAUGUAAAUCUUCGGGUGGCAGGAUAUCGGCGGCUACAGGAGGGCCAGGUC , output reported Kd.
8.57 nM

Input Eterna 7681766 (Exclusion - Tryptophan A) (ssRNA) RNA: UGUGAACAAAAGUAGAGUGGACCACUAUAGCGAGGACCGGUACGGCCGCCACUCGUAUAUAAAUUCAGUGAUGUUGAAAAGAGCU , output reported Kd.
> 3000 nM

Input Eterna 7720377 (Same State - Arginine B) (ssRNA) RNA: GCCUAGCAGGGAAGGAGCGGCAUAAGCAUAGAUAAUAUGCAGUUAGUGAUGUUAAUACUAUGCCAGGUAGGUCGCCCUGCUAGGC , output reported Kd.
> 3000 nM

Input Eterna 6389671 (Inverted Exclusion NG 2) (ssRNA) RNA: ACUUGUAAGUAGAAGGUAGUCAUUAUAUUAAUCAUGUAAACAUGAGGAUCACCCAUGUAGAGUACUAAGGAUAUACAUCGAUAG , output reported Kd.
15.2 nM

Input Eterna 5958224 (Same State NG 3) (ssRNA) RNA: CGAGGCGUACAUGAGGAUCACCCAUGUACCUAACAACAAAGCAAGGAUAUCCUGGCUAUAAUACAGGAGAAGGUGUGGUCCUUA , output reported Kd.
135 nM

Input Eterna 1282 (Exclusion - Tryptophan B) (ssRNA) RNA: GGAUUGCGUUCGGCCGCCACUAGACUACAUUCCACGCCCGACCCGUUUUUAAGUGAUGUUUAAACUAGGACCGGGAACCGAUUUC , output reported Kd.
> 3000 nM

Input Eterna 7672552 (Same State - Tryptophan A) (ssRNA) RNA: UAAGAAUAAGUAGCAGUGAUGUUGCUACUACGAGGACCGGUACGGCCGCCACUCGAGUCCUCGAAACAUCACUGAACGAGGAAUA , output reported Kd.
> 3000 nM

Input Eterna 7747481 (Same State - Arginine B) (ssRNA) RNA: GCCGUAGAUUGAAGGAGCGACAUAAACGAUGUUCUGGUAGUGAUGUUACCUUAGCAGGCAUGUCAGGUAGGUCGCAAUCUACGGC , output reported Kd.
> 3000 nM

Input Eterna 7691153 (Same State - Arginine B) (ssRNA) RNA: AAUGCAUAGUGAAGGAGCGCGAUUUGCAGUGAUGUUGCAAAUUUAAACAAUCUUAUCUUUUCGCAGGUAGGUCGCACUAUGCAUA , output reported Kd.
> 3000 nM

Just for reference, paper PMC9170038 is where these values come from.
